Reference source: patent US8624002B2

Below, each entry is listed with its recorded Tm2 (° C.).
assay: Intrinsic thermodynamic stability by DSC; assay type: physicochemical; settings: same buffer
READOUT_KIND: Tm2 (° C.) (°C)

1) Hu2B5.8: humanized 2B5-8.0; VH SEQ ID NO 74, VL SEQ ID NO 75 (antibody, V domains shown) VH: EVQLVQSGAEVKKPGASVKVSCKASGYTFTKYWLGWVRQAPGQGLEWMGDIYPGYDYTHYNEKFKDRVTLTTDTSTSTAYMELSSLRSDDTAVYYCARSDGSSTYWGQGTLVTVSS VL: DVLMTQTPLSLPVTPGEPASISCTSSQNIVHSNGNTYLEWYLQKPGQSPQLLIYKVSNRFSGVPDRFSGSGSGTDFTLKISRVEAEDVGVYYCFQVSHVPYTFGGGTKVEIKR : 75.33
2) Hu2B5.9: humanized 2B5-8.0; VH SEQ ID NO 76, VL SEQ ID NO 77 (antibody, V domains shown) VH: EVQLVQSGAEVKKPGASVKVSCKASGYTFTKYWLGWVRQAPGQGLEWMGDIYPGYDYTHYNEKFKDRVTMTTDTSTSTAYMELRSLRSDDTAVYYCARSDGSSTYWGQGTLVTVSS VL: DIVMTQTPLSLPVTPGEPASISCTSSQNIVHSNGNTYLEWYLQKPGQSPQLLIYKVSNRFSGVPDRFSGSGSGTDFTLKISRVEAEDVGVYYCFQVSHVPYTFGGGTKVEIKR : 75.965
3) Hu2B5.3: humanized 2B5-8.0; VH SEQ ID NO 64, VL SEQ ID NO 65 (antibody, V domains shown) VH: EVQLVQSGAEVKKPGASVKVSCKASGYTFTKYWLGWVRQAPGQGLEWIGDIYPGYDYTHYNEKFKDRATLTVDTSTSTAYMELRSLRSDDTAVYYCARSDGSSTYWGQGTLVTVSS VL: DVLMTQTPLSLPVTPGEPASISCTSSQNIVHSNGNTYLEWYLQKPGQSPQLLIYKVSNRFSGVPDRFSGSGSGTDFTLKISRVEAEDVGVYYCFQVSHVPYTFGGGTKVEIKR : 72.96
4) Hu2B5.4: humanized 2B5-8.0; VH SEQ ID NO 66, VL SEQ ID NO 67 (antibody, V domains shown) VH: EVQLVQSGAEVKKPGASVKVSCKASGYTFTKYWLGWVRQAPGQGLEWIGDIYPGYDYTHYNEKFKDRATLTVDTSTSTAYMELSSLRSDDTAVYYCARSDGSSTYWGQGTLVTVSS VL: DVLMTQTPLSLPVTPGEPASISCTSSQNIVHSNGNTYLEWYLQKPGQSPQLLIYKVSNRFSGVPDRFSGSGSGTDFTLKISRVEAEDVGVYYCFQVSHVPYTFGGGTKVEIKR : 72.41
5) Hu2B5.1: humanized 2B5-8.0; VH SEQ ID NO 60, VL SEQ ID NO 61 (antibody, V domains shown) VH: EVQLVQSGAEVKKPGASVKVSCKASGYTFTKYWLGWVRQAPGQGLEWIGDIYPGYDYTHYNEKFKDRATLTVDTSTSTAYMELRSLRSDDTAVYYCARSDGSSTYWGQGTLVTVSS VL: DVVMTQTPLSLPVTPGEPASISCTSSQNIVHSNGNTYLEWYLQKPGQSPQLLIYKVSNRFSGVPDRFSGSGSGTDFTLKISRVEAEDVGVYYCFQVSHVPYTFGGGTKVEIKR : 75.02
6) Hu2B5.2: humanized 2B5-8.0; VH SEQ ID NO 62, VL SEQ ID NO 63 (antibody, V domains shown) VH: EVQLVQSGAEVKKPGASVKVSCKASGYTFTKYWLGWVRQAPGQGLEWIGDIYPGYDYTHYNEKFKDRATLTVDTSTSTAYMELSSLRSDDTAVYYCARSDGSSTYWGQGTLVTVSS VL: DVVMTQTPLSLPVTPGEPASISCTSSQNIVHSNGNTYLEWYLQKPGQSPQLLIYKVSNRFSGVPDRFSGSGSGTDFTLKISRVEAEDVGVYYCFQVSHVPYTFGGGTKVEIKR : 75.08
7) Hu2B5.6: humanized 2B5-8.0; VH SEQ ID NO 70, VL SEQ ID NO 71 (antibody, V domains shown) VH: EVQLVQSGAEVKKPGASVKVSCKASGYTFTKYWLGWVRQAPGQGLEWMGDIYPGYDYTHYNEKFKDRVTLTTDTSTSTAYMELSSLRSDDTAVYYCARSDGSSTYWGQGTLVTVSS VL: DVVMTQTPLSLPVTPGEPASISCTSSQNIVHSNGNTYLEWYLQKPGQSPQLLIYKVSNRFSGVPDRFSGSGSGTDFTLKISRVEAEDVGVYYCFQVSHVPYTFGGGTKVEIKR : 75.585
